Species: Rattus norvegicus
Experiment: Open TG-GATES - Regimen: Single
Assay type: toxicity, organism-based, Sprague-Dawley
Design: regimen Single, gender Male, age 6 weeks
Conditions: in vivo, po, 1000 mg/kg, 24 h, tissue Plasma, route gavage, dose level High
Value type: CRE (mg/dL)

INSERT INTO assay_data (compound, measured_value) VALUES
  ('COC(=O)C1=C(C)NC(C)=C(C(=O)OC)C1c1ccccc1[N+](=O)[O-] [NIFEDIPINE]', 0.2),
  ('CN/C(=N/CCSCc1nc[nH]c1C)NC#N [CIMETIDINE]', 0.4),
  ('CNC(=C[N+](=O)[O-])NCCSCc1ccc(CN(C)C)o1 [RANITIDINE]', 0.4);

Numbers sourced from ChEMBL document CHEMBL3885861.
